Study target: mSPSB4ΔSB (Mus musculus, UniProt Q8R5B6)
Construct: mSPSB1 and mSPSB4 lacking the C-terminal SOCS box region (mSPSB1ΔSB and mSPSB4ΔSB); GST (cleaved yes); made in house; host or cells: E. coli Origami B(DE3) pLysS
Sequence (Q8R5B6 1-233, stated change not applied): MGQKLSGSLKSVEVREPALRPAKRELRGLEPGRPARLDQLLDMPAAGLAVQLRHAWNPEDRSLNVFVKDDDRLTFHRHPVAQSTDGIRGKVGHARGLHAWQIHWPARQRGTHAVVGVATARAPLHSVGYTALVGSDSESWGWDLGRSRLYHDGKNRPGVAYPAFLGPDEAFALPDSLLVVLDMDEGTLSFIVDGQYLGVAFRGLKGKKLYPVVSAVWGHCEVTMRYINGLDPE
Assay summary: ITC of hPar-4 peptides with mSPSB4ΔSB
Assay type: binding, murine
Experimental setup: 22 °C, 20 mM Tris, 150 mM NaCl, 2.5 mM CaCl2, pH 8.0, 100 μM peptide into 10 μM protein, ± standard error of the mean
Where no end group is shown, it is not given here.
Note to self: Kd under 200 nM means 1, ties and anything higher get -1.

For orientation, consider the following solved cases.
GTPAAAADNELNNNLPGGA [[A66D]hPar-4(59–77)] : -1
AAANEINNNLPGGA [[L69I]hPar-4(64–77)] : 1
AAANELNNNLPGGA [hPar-4(64–77)] : -1
AAANDLNNNLPGGA [[E68D]hPar-4(64–77)] : 1

# evaluate next
Is Kd strictly under 200 nM for the entry AAANDINNNLPGGA [[E68D,L69I]hPar-4(64–77)] ?
1
